target: BuChE (EC 3.1.1.8) from horse serum (Equus caballus, UniProt P81908); construct: purchased Sigma-Aldrich C0663; host or cells: equine serum; assay: biochemical; format: biochemical; settings: BuChE from horse serum; mean ± SEM of three experiments
Sequence (P81908 whole entry): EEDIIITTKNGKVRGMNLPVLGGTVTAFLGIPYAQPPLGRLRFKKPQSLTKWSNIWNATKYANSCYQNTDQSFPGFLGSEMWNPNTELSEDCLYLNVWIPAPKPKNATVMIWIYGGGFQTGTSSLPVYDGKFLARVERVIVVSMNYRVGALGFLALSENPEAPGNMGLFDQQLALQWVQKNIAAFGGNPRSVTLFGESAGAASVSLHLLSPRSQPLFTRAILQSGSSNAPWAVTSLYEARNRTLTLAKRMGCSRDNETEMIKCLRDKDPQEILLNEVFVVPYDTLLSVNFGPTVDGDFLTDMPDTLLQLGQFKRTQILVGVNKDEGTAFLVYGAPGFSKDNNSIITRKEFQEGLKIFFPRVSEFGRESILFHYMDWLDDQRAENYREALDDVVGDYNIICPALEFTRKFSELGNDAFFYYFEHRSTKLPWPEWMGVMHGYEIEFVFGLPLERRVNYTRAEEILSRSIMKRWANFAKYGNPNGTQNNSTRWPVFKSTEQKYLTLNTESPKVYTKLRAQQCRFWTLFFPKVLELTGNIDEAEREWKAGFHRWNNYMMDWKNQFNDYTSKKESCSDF
Quantity: IC50 (nM)
One number for each entry, in nM.

Field: example entries. Status: answers known.
[
  {
    "Molecule": "COc1ccc(/C=C/C(=O)NCCCCCCNc2c3c(nc4ccccc24)CCCC3)cc1 [Compound 30]",
    "Quantitative Readout": 22.5
  },
  {
    "Molecule": "Cc1cccc(/C=C/C(=O)NCCCCCCNc2c3c(nc4ccccc24)CCCC3)c1 [Compound 15]",
    "Quantitative Readout": 37.3
  },
  {
    "Molecule": "Cc1ccccc1/C=C/C(=O)NCCCCCCNc1c2c(nc3ccccc13)CCCC2 [Compound 14]",
    "Quantitative Readout": 6
  }
]

Working through the 3 molecules below one at a time, give IC50 for each.
1. O=C(/C=C/c1ccccc1)NCCNc1c2c(nc3ccccc13)CCCC2 [Compound 9]
2. O=C(/C=C/c1ccccc1)NCCCNc1c2c(nc3ccccc13)CCCC2 [Compound 10]
3. O=C(/C=C/c1ccccc1)NCCCCCCCCNc1c2c(nc3ccccc13)CCCC2 [Compound 13]

## Result
[69.1, 3.5, 7.8]

Need IC50 for each of these molecules.
1. O=C(/C=C/c1ccc(F)cc1)NCCCCCCNc1c2c(nc3ccccc13)CCCC2 [Compound 24]
2. O=C(/C=C/c1cccc([N+](=O)[O-])c1)NCCCCCCNc1c2c(nc3ccccc13)CCCC2 [Compound 18]

## Result
1: 65.9; 2: 6.8

* * *

target: BuChE (EC 3.1.1.8) from horse serum (Equus caballus); construct: purchased Sigma-Aldrich C0663; host or cells: equine serum; assay: biochemical; type: biochemical; details: BuChE from horse serum; mean ± SEM of three experiments
Quantity: IC50
Please answer using a numeric value trailed by its unit.

[
  {
    "Molecular String": "O=C(/C=C/c1cccc(Cl)c1)NCCCCCCNc1c2c(nc3ccccc13)CCCC2",
    "Result": "9.2 nM"
  },
  {
    "Molecular String": "COc1cc(/C=C/C(=O)NCCCCCCNc2c3c(nc4ccccc24)CCCC3)ccc1OCc1ccccc1",
    "Result": "29.8 nM"
  },
  {
    "Molecular String": "O=C(/C=C/c1ccccc1C(F)(F)F)NCCCCCCNc1c2c(nc3ccccc13)CCCC2",
    "Result": "2.4 nM"
  },
  {
    "Molecular String": "N#Cc1cccc(/C=C/C(=O)NCCCCCCNc2c3c(nc4ccccc24)CCCC3)c1",
    "Result": "68.5 nM"
  },
  {
    "Molecular String": "O=C(/C=C/c1ccc(Cl)cc1)NCCCCCCNc1c2c(nc3ccccc13)CCCC2",
    "Result": "12.9 nM"
  },
  {
    "Molecular String": "O=C(/C=C/c1ccc([N+](=O)[O-])cc1)NCCCCCCNc1c2c(nc3ccccc13)CCCC2",
    "Result": "6.5 nM"
  },
  {
    "Molecular String": "O=C(/C=C/c1ccc(O)cc1)NCCCCCCNc1c2c(nc3ccccc13)CCCC2",
    "Result": "43.5 nM"
  },
  {
    "Molecular String": "O=C(C=Cc1ccccc1)NCCCCNc1c2c(nc3ccccc13)CCCC2",
    "Result": "2.9 nM"
  }
]

Batch lookup, IC50 per entry.
1. O=C(/C=C/c1ccc(Br)cc1)NCCCCCCNc1c2c(nc3ccccc13)CCCC2
2. COc1cc(/C=C/C(=O)NCCCCCCNc2c3c(nc4ccccc24)CCCC3)ccc1OCc1ccc(Cl)cc1
3. O=C(/C=C/c1cccc(O)c1)NCCCCCCNc1c2c(nc3ccccc13)CCCC2

## Result
["29.9 nM", "22.6 nM", "25.1 nM"]

I have 5 molecules here; please give me IC50 for each one.
1. COc1ccc(/C=C/C(=O)NCCCCCCNc2c3c(nc4ccccc24)CCCC3)c(OC)c1OC
2. COc1cc(/C=C/C(=O)NCCCCCCNc2c3c(nc4ccccc24)CCCC3)cc(OC)c1OC
3. Cc1ccc(/C=C/C(=O)NCCCCCCNc2c3c(nc4ccccc24)CCCC3)cc1
4. O=C(/C=C/c1ccccc1Cl)NCCCCCCNc1c2c(nc3ccccc13)CCCC2
5. O=C(/C=C/c1cccc(C(F)(F)F)c1)NCCCCCCNc1c2c(nc3ccccc13)CCCC2

## Result
1: 8.1 nM; 2: 3.4 nM; 3: 54.4 nM; 4: 8.7 nM; 5: 81.1 nM
